- Experiment Description: RAM signaling pathway blockade in yeast – S. cerevisiae, Pdr1DBD-CYC8 efflux-inhibited sensitized strain, primary screen (AID 1298);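 note: 0% = DMSO untreated cells without growth and 100% = 10 µM 1-NA-PP1 full growth; higher means more yeast growth rescued from 5-FOA killing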
- Applied Conditions: S. cerevisiae cbk1-as DSE1-URA3 strain, 5-FOA growth OD615, 2 d; at 50 µM; active compounds read high
Consider the following compounds and their measured RAM network inhibition readings.
Measured Parameter: RAM network inhibition (%)

Compound	Value Reported
O=C(C1CCCCN1S(=O)(=O)c1ccc(F)cc1)N1CCN(c2ccccc2F)CC1 (stereo not given)	1.9
CCCS(=O)(=O)c1nc(S(=O)(=O)c2ccc(C)cc2)c(NCCCN2CCOCC2)s1	5.15
CCC(=O)c1ccc(OCC(O)CN2C(=O)NC(C)(C)C2=O)cc1 (stereo not given)	1.09
O=C(c1ccc(S(=O)(=O)N2CCCC2)cc1)N1CCCc2ccccc21	1.2
CC1=C(C(=O)OC2CCCCC2)C(c2ccco2)n2ncnc2N1 (stereo not given)	5.64

====

The entries below come with measured viability values attached.
- Experiment Description: growth suppression of PTEN-deleted HCT116, pilot screen, cell-based, HCT116 clonal line, CellTiter-Glo (AID 824);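 note: 0% = 20 µM Hyamine control and 100% = vehicle cell control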
- Applied Conditions: 60 h, at 10 µM, active compounds read low
Inconclusive results are not listed. The source made the active and inactive calls.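 The calls were made as follows: active = viability at or below 27.92% in each of two runs, the all-compound median minus 4 SD; inconclusive = no clear call, values can overlap the other calls; inactive = the rest.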
Measured Parameter: viability

Compound	Measured Parameter	Value Reported
COc1cc(/C=N/n2cnnc2)ccc1OC(=O)c1ccncc1	viability	99.1% (inactive)
O=C1CNC(=O)/C1=C\N1CCN(C(c2ccccc2)c2ccccc2)CC1	viability	101% (inactive)
COc1ccc(-n2ncc3c(N4CCN(c5cc(C)ccc5C)CC4)ncnc32)cc1	viability	68% (inactive)
CC1Cc2nc(SCC(=O)N3CCCC3)n(C)c(=O)c2S1 (stereo not drawn)	viability	87.9% (inactive)
Nc1ccc(-c2nc3ccccc3[nH]2)cc1	viability	87.8% (inactive)
COCCN1C(=O)C(CC(=O)Nc2ccc(C(=O)O)cc2)SC1=Nc1ccccc1 (stereo not drawn)	viability	97.6% (inactive)
O=C(Nc1nnc(-c2cccs2)o1)c1cccc(C(F)(F)F)c1	viability	19.5% (active)
CCc1cc(=O)oc2cc(OCC(=O)N(CC)CC)c(Cl)cc12	viability	104% (inactive)
CC(=O)c1cccc(NC(=O)Cn2cc3c(n2)CCCC3)c1	viability	96.7% (inactive)
CCOCCCNC(=O)C(c1ccc(OC)cc1)N(Cc1ccc2c(c1)OCO2)C(=O)CNC(C)=O (stereo not drawn)	viability	107% (inactive)
CC1=C(C(=O)OC(C)C)C(c2cccs2)n2ncnc2N1 (stereo not drawn)	viability	96.2% (inactive)
COc1cc(C2N(c3ccccc3)CCN2c2ccccc2)ccc1OC(C)=O	viability	94.5% (inactive)
CS(=O)(=O)c1ccc(C(=O)NC2CCOC2=O)cc1 (stereo not drawn)	viability	97.6% (inactive)
Cn1c(=O)oc2cc(S(=O)(=O)NC(Cc3ccccc3)C(=O)N3CCCCC3)ccc21 (stereo not drawn)	viability	98.6% (inactive)
Cc1cc(C(=O)Nc2nnc(C3CCCCC3)s2)cs1	viability	101% (inactive)
O=C(NCCCNCc1ccccc1)c1ccc(/C=N/O)nc1	viability	97.9% (inactive)
Nc1nc(SCc2ccc(Cl)cc2)ns1	viability	89.2% (inactive)
CC1=C(C(=O)OC2CCCCCCC2)C(c2cccc(O)c2)NC(=O)N1 (stereo not drawn)	viability	65.6% (inactive)
O=C(Nc1cc(=O)c2ccccc2o1)N1CCOCC1	viability	103% (inactive)
Cc1cc(NC(=O)CSc2nnc(Cc3cccn3C)n2CCc2ccccc2)no1	viability	89.4% (inactive)
Cc1nc2sc(C(c3ccc(C(C)C)cc3)N3CCN(CCO)CC3)c(O)n2n1 (stereo not drawn)	viability	98.1% (inactive)
CCn1c(N)nc2c1c(=O)n(C)c(=O)n2C	viability	98.9% (inactive)
COc1ccc(-c2nnc(COc3ccc4ccccc4c3)o2)cc1OC	viability	91.6% (inactive)
